Tested on: RPE1 (normal human immortalized retinal pigment epithelial cell line)
protocolSummary: MTT assay on normal cells, RPE1
Assay type: cell-based
testSettings: RPE-1, RPE1 normal (non-cancer) cell line, read-out: IC50, μM ± SD, RPE1
Answer each item with its documented IC50.
Give bare numbers, in µM.

Please give IC50, item by item, for the list that follows.
1. Cc1ccc(/C=C2\CN(C(=O)NCc3ccccc3)C/C(=C\c3ccc(C)cc3)C2=O)cc1
2. CCNC(=O)N1C/C(=C\c2ccc(C)cc2)C(=O)/C(=C/c2ccc(C)cc2)C1

## Result
[47, 18.9]

Please give IC50, item by item, for the list that follows.
1. COc1ccc(NC(=O)N2C/C(=C\c3ccc(Cl)cc3)C(=O)/C(=C/c3ccc(Cl)cc3)C2)cc1
2. O=C1/C(=C/c2ccccc2)CN(C(=O)NCc2ccccc2)C/C1=C\c1ccccc1

## Result
1: 7.5; 2: 12

Please give IC50, item by item, for the list that follows.
1. COc1ccc(NC(=O)N2C/C(=C\c3ccccc3)C(=O)/C(=C/c3ccccc3)C2)cc1
2. O=C1/C(=C/c2ccccc2)CN(C(=O)Nc2ccc(Cl)cc2)C/C1=C\c1ccccc1

## Result
1. 17.7
2. 22.1

Please give IC50, item by item, for the list that follows.
1. COc1ccc(NC(=O)N2C/C(=C\c3ccc(F)cc3)C(=O)/C(=C/c3ccc(F)cc3)C2)cc1
2. O=C1/C(=C/c2ccc(F)cc2)CN(C(=O)Nc2ccc(Cl)cc2)C/C1=C\c1ccc(F)cc1

## Result
9.46
8.26
